Molecular target: Follistatin-related protein 3 (Homo sapiens) (UniProt O95633)
Sequence (O95633 whole entry, looked up): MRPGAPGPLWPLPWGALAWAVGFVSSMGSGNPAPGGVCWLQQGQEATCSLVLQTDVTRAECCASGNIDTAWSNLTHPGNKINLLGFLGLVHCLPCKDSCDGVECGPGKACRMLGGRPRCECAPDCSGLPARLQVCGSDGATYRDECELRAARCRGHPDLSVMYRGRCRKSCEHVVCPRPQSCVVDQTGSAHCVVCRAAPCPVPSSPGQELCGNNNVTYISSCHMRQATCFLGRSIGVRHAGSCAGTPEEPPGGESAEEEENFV
Experiment: FSTL3 binders on small-molecule microarrays, primary screen, biochemical, small-molecule microarray, 635 nm fluorescence (AID 1105);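 note: score merges emission near 667 nm and signal to noise per printed spot across three slides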
Conditions: FSTL3 binding, higher = more signal
composite z-score by entry:
Enter the number alone.

Before answering, review these 2 worked examples.
compound: CCOC(=O)C1=CC[C@@H](c2ccccc2)N(S(=O)(=O)c2ccc(C)cc2)[C@@H]1C#N
observable: composite z-score
observedMeasurement: 0.364
--
compound: [N-]=[N+]=NCc1ccccc1C[C@]1(C(=O)N2CCCCC2)COC(c2ccc(OCCCO)cc2)=N1
observable: composite z-score
observedMeasurement: 0.636

Item COC(=O)C(CC#Cc1ccc2c(c1)[C@]1(C(=O)N2)[C@H](C(=O)N2CCN(c3ncccn3)CC2)[C@H]2C(=O)O[C@H](c3ccccc3)[C@H](c3ccccc3)N2[C@@H]1c1ccc(O)cc1)C(=O)OC ; assay system Follistatin-related protein 3 (Homo sapiens) (UniProt O95633); composite z-score reported as 1.47

Tested on Follistatin-related protein 3 (Homo sapiens) (UniProt O95633): C=CCOC(=O)[C@H]1[C@@H]2C(=O)O[C@@H](c3ccccc3)[C@@H](c3ccccc3)N2[C@@H](c2ccc(OCCOC(=O)[C@H]3C[C@H]4C(=O)NCC(=O)N4[C@H]3c3ccc(O)cc3)cc2)[C@]12C(=O)Nc1ccccc12 . Observed composite z-score: 1.23

Record for COCCOC(=O)N1C(=O)[C@@]2(c3cc(C#CCC(C(=O)OC)C(=O)OC)ccc31)[C@H](c1ccc(O)cc1)N1[C@H](c3ccccc3)[C@H](c3ccccc3)OC(=O)[C@H]1[C@@H]2C(=O)N1CCc2cc(OC)c(OC)cc2C1 under target or system Follistatin-related protein 3 (Homo sapiens) (UniProt O95633): composite z-score reported as 0.728

I looked up [N-]=[N+]=NCc1ccccc1[C@H]1OC(c2ccc(OCCCO)cc2)=N[C@@]1(CCS(=O)(=O)c1ccccc1)C(=O)O and its composite z-score for Follistatin-related protein 3 (Homo sapiens) (UniProt O95633) was -0.0142

Short answer on Follistatin-related protein 3 (Homo sapiens) (UniProt O95633) for CCOC(=O)C1=CCC(c2cccn2C(=O)OC(C)(C)C)N(S(=O)(=O)c2ccc(C)cc2)C1 (stereo not given) , composite z-score: 0.922

Test item COC(=O)C(CC#Cc1ccc2c(c1)[C@]1(C(=O)N2)[C@H](C(N)=O)[C@H]2C(=O)O[C@H](c3ccccc3)[C@H](c3ccccc3)N2[C@@H]1c1ccccc1OCCO)C(=O)OC ; Follistatin-related protein 3 (Homo sapiens) (UniProt O95633); reported composite z-score was 0.385

The observed composite z-score for CC(C)c1ccc(NN2C(C(O)c3ccccc3)C=CC3C(=O)N(c4ccccc4)C(=O)C32)cc1 (stereo not given) when tested with Follistatin-related protein 3 (Homo sapiens) (UniProt O95633) stands at 0.634

Field composite z-score (system: Follistatin-related protein 3 (Homo sapiens) (UniProt O95633)) for entry CC1C2C(CCCO)=CC(C3C(=O)N(C(N)=O)C(=O)C23)N1Cc1cccc(OC(F)(F)F)c1 (stereo not given) = 0.101

Measured composite z-score for this entry C=CC[C@H](O)c1ccc(O)c(F)c1 on Follistatin-related protein 3 (Homo sapiens) (UniProt O95633): -0.418

Measured on Follistatin-related protein 3 (Homo sapiens) (UniProt O95633), Cc1c(NC(=O)/C(C#N)=C/C=C/c2ccc([N+](=O)[O-])cc2)c(=O)n(-c2ccccc2)n1C has a documented composite z-score of 1.21

Item: [N-]=[N+]=NCc1ccccc1[C@H]1OC(c2ccc(OCCCO)cc2)=N[C@@]1(Cc1ccccc1N=[N+]=[N-])C(N)=O | System: Follistatin-related protein 3 (Homo sapiens) (UniProt O95633) | composite z-score: 0.828

# value of composite z-score, Follistatin-related protein 3 (Homo sapiens) (UniProt O95633), item C=CC[C@H](O)c1ccc(O)c2ccccc12 = 1.42

Value sought: composite z-score, system Follistatin-related protein 3 (Homo sapiens) (UniProt O95633), item CCCCC(=C=CC[C@H](O)c1cccc(OCCO)c1)C[C@H](O)c1cc(Cl)cc(Cl)c1O . Result: 0.544

Result for C[N+](C)(C)CCCC[C@@H]1NC(=O)[C@H]2C[C@@H](C(=O)NCCCCCN)[C@@H](c3ccc(O)cc3)N2C1=O , tested on Follistatin-related protein 3 (Homo sapiens) (UniProt O95633), composite z-score: 0.58

Item: [N-]=[N+]=Nc1ccccc1C[C@@]1(C(=O)NCc2ccccc2)N=C(c2ccc(OCCCO)cc2)O[C@@H]1c1ccccc1 | System: Follistatin-related protein 3 (Homo sapiens) (UniProt O95633) | composite z-score: 1.06

The compound CCCC=C(CCC)[C@@H](NC(=O)c1ccc(C(=O)OC)cc1)c1ccc(C(=O)OC)cc1 , when measured on Follistatin-related protein 3 (Homo sapiens) (UniProt O95633), yielded composite z-score of -0.0762

Tested system Follistatin-related protein 3 (Homo sapiens) (UniProt O95633); composite z-score recorded for COc1cc(Cc2cc3c(c(-c4ccccc4)n2)[Si](C(C)C)(C(C)C)OC3)cc(OC)c1OC was 0.0088

O=C1NC(=O)C2C1C=CC(C(O)C1CCCCC1)N2Nc1ccccn1 (stereo not given) on Follistatin-related protein 3 (Homo sapiens) (UniProt O95633) gives composite z-score = 0.402
